Listed next: entries and their corresponding Plant response rating, Bermudagrass.
Tested on: bermudagrass
Test: Test C pre-/postemergence herbicide test
Format: in vivo, Cynodon dactylon
Conditions: 125 g ai/ha; scale 0 (no effect) to 100 (complete control); visual, 12 to 14 days; preemergence
Just the number, please, no unit after it.

Sample answers from the record:
CCc1nn(C(C)(C)C)cc1C(=O)Nc1cccc(C(C)=NO)c1 [Compound 188] ... 100
CCC(=NO)c1cccc(NC(=O)c2cc(C(C)(C)C)nn2C)c1 [Compound 118] ... 100
CCNC(=O)c1cc(C)nc(NC(=O)c2cc(C(C)(C)C)nn2CC)c1 [Compound 149] ... 90

Q: Return reported Plant response rating, Bermudagrass; argument: CCc1nc(C(C)(C)C)sc1C(=O)Nc1cccc(C(=O)NCC2CC2)n1 [Compound 215]
Result: 70

Q: Return reported Plant response rating, Bermudagrass; argument: CCn1nc(C(C)(C)C)cc1C(=O)Nc1cccc(S(=O)(=O)C(F)(F)F)c1 [Compound 134]
Result: 95

###

System: rice
Test: Test C flooded paddy test
Assay type: in vivo, Oryza sativa
Details: 250 g ai/ha, scale of 0 to 100, 0 is no effect, 100 is complete control
RECORDED_METRIC: Rice plant response rating
Just the number, please, no unit after it.

Sample answers from the record:
CCNC(=O)c1cccc(NC(=O)c2nn(C(C)C)nc2C)c1 ... 0
C#CCOc1cccc(NC(=O)c2cc(C(C)(C)C)nn2CC)c1 ... 35
CCn1nc(C(C)(C)C)cc1C(=O)Nc1cccc(OC(F)(F)C(F)F)c1 ... 15
CCC(=NO)c1cccc(NC(=O)c2cc(C(C)(C)C)nn2C)c1 ... 40
Cc1nn(C(C)(C)C)nc1C(=O)Nc1cccc(C(=O)N(C)C)c1 ... 75
CCOC(=O)c1ccc(F)c(NC(=O)c2cc(C3(C)CC3)nn2CC)c1 ... 40
CCn1nc(C(C)(C)C)cc1C(=O)Nc1cncc(C(=O)N(C)C)n1 ... 25
CCc1nc(C(C)(C)C)sc1C(=O)Nc1cc(C(=O)N(C)CC)ccc1F ... 75

# context switch: different compound, same Rice plant response rating
Q: State its Rice plant response rating on rice: "C=CCOc1cccc(NC(=O)c2cc(C(C)(C)C)nn2CC)c1"
Result: 20

###

Tested on: pigweed
Test: Test B pre-/postemergence herbicide test
Type: in vivo, Amaranthus retroflexus
Conditions: 500 g ai/ha; visual rating 0-100, 0 no effect, 100 complete control; preemergence
RECORDED_METRIC: Plant response rating, Pigweed
Just the number, please, no unit after it.

Sample answers from the record:
CCN(CC)C(=O)c1cccc(NC(=O)c2cn(C(C)(C)C)nc2C)c1 ... 100
CCn1nc(C(C)(C)C)cc1C(=O)Nc1cccc(S(=O)(=O)C(F)(F)F)c1 ... 100
CC(=O)c1cccc(NC(=O)c2cn(C(C)C)nc2C)c1 ... 0
Cc1nc(C(C)(C)C)sc1C(=O)Nc1cccc(C(=O)NCCF)c1 ... 90
C#CCNC(=O)c1cccc(NC(=O)c2sc(C(C)(C)C)nc2C)c1 ... 90

# context switch: different molecule, same Plant response rating, Pigweed
Q: Return reported Plant response rating, Pigweed; argument: "CCc1nn(C(C)(C)C)cc1C(=O)Nc1cccc(C(C)=NO)c1"
Result: 70
